# Tested on: P. aeruginosa WT (PAO1)
# assayExplanation: MIC, CLSI broth microdilution, P. aeruginosa
# Type: cell-based
# recordedConditions: Pseudomonas aeruginosa, PAO1; CLSI broth microdilution; read-out: P. aeruginosa WT (PAO1) MIC
measurementName: MIC

get_value(item= CN1C(=O)CON=C1[C@@H]1c2c(cnn2C)[C@@H]2CN1C(=O)N2OS(=O)(=O)O [Example 64] , readout=MIC) returns > 16 µg/mL

get_value(item= Cn1ncc2c1[C@@H](c1noc(=O)n1Cc1nc(N)cs1)N1C[C@@H]2N(OS(=O)(=O)O)C1=O [Example 53] , readout=MIC) returns > 16 µg/mL

get_value(item= CN/C(=N\OC(C)(C)C(=O)O)[C@@H]1c2c(cnn2C)[C@@H]2CN1C(=O)N2OS(=O)(=O)O [Example 63] , readout=MIC) returns 8 to 16 µg/mL

get_value(item= CN(C(N)=O)/C(=N\OC(=O)NCCNC(N)=O)[C@@H]1c2c(cnn2C)[C@@H]2CN1C(=O)N2OS(=O)(=O)O [Example 43] , readout=MIC) returns > 16 µg/mL

get_value(item= CN1C(=O)C(C)(C)ON=C1[C@@H]1c2c(cnn2C)[C@@H]2CN1C(=O)N2OS(=O)(=O)O [Example 65] , readout=MIC) returns > 16 µg/mL

get_value(item= Cn1ncc2c1[C@@H](/C(=N/O)NCCCCN)N1C[C@@H]2N(OS(=O)(=O)O)C1=O (racemic) [Example 8] , readout=MIC) returns > 16 µg/mL

get_value(item= CN/C(=N\O)[C@@H]1c2c(cnn2CCNC(C)=O)[C@@H]2CN1C(=O)N2OS(=O)(=O)O [Example 48] , readout=MIC) returns 8 to 16 µg/mL

get_value(item= CN/C(=N\OCCN)[C@@H]1c2c(cnn2C)[C@@H]2CN1C(=O)N2OS(=O)(=O)O (racemic) [Example 7] , readout=MIC) returns 8 to 16 µg/mL

get_value(item= CN/C(=N\OC(=O)N(C)C)[C@@H]1c2c(cnn2C)[C@@H]2CN1C(=O)N2OS(=O)(=O)O (racemic) [Example 21] , readout=MIC) returns > 16 µg/mL

get_value(item= CN/C(=N\O)[C@@H]1c2c(cnn2C/C=N/OCCN)[C@@H]2CN1C(=O)N2OS(=O)(=O)O (racemic) [Example 49] , readout=MIC) returns < 8 µg/mL

get_value(item= CN/C(=N\OCCCCN)[C@@H]1c2c(cnn2C)[C@@H]2CN1C(=O)N2OS(=O)(=O)O (racemic) [Example 6] , readout=MIC) returns 8 to 16 µg/mL

get_value(item= Cn1ncc2c1[C@@H](c1noc(=O)n1C)N1C[C@@H]2N(OS(=O)(=O)O)C1=O [Example 66] , readout=MIC) returns > 16 µg/mL

get_value(item= CCN/C(=N\O)[C@@H]1c2c(cnn2C)[C@@H]2CN1C(=O)N2OS(=O)(=O)O (racemic) [Example 5] , readout=MIC) returns > 16 µg/mL

get_value(item= CN/C(=N\OC(=O)NCCCCN)[C@@H]1c2c(cnn2C)[C@@H]2CN1C(=O)N2OS(=O)(=O)O (racemic) [Example 19] , readout=MIC) returns < 8 µg/mL

get_value(item= CN/C(=N\OCC(=O)NOS(=O)(=O)O)[C@@H]1c2c(cnn2C)[C@@H]2CN1C(=O)N2OS(=O)(=O)O [Example 73] , readout=MIC) returns 8 to 16 µg/mL

###

Would you mind telling me the reported MIC of each entry?
# Tested on: P. aeruginosa WT (PAO1)
# assayExplanation: MIC, CLSI broth microdilution, P. aeruginosa
# Assay type: cell-based
# recordedConditions: Pseudomonas aeruginosa, PAO1; CLSI broth microdilution; read-out: P. aeruginosa WT (PAO1) MIC
Where a name gives a salt, the structure may show the parent alone.

get_value(item= CN/C(=N\OC(=O)NCCCN)[C@@H]1c2c(cnn2C)[C@@H]2CN1C(=O)N2OS(=O)(=O)O (racemic) , readout=MIC) returns < 8 µg/mL

get_value(item= CN/C(=N\OC(=O)NCCC(=O)O)[C@@H]1c2c(cnn2C)[C@@H]2CN1C(=O)N2OS(=O)(=O)O (racemic) , readout=MIC) returns 8 to 16 µg/mL

get_value(item= CN/C(=N\OC(=O)NCc1cnn(C)c1)[C@@H]1c2c(cnn2C)[C@@H]2CN1C(=O)N2OS(=O)(=O)O (racemic) , readout=MIC) returns > 16 µg/mL

get_value(item= CN/C(=N\OC(=O)N[C@H]1CCNC1)[C@@H]1c2c(cnn2C)[C@@H]2CN1C(=O)N2OS(=O)(=O)O (racemic) , readout=MIC) returns < 8 µg/mL

get_value(item= CON/C(=N\O)[C@@H]1c2c(cnn2C)[C@@H]2CN1C(=O)N2OS(=O)(=O)O (racemic) , readout=MIC) returns 8 to 16 µg/mL

get_value(item= CN/C(=N\OC(=O)NCCCCNC(=O)C(F)(F)F)[C@@H]1c2c(cnn2C)[C@@H]2CN1C(=O)N2OS(=O)(=O)O , readout=MIC) returns > 16 µg/mL

get_value(item= Cn1ncc2c1[C@@H](/C(=N/O)NCc1ccc(N)cc1)N1C[C@@H]2N(OS(=O)(=O)O)C1=O (racemic) , readout=MIC) returns > 16 µg/mL

get_value(item= Cn1ncc2c1[C@@H](/C(=N/O)NO)N1C[C@@H]2N(OS(=O)(=O)O)C1=O (racemic) , readout=MIC) returns > 16 µg/mL

get_value(item= CN(N)/C(=N\OS(=O)(=O)O)[C@@H]1c2c(cnn2C)[C@@H]2CN1C(=O)N2OS(=O)(=O)O , readout=MIC) returns > 16 µg/mL

get_value(item= CN/C(=N\O)[C@@H]1c2c(cnn2C)[C@@H]2CN1C(=O)N2OS(=O)(=O)O (stereo in doubt) [Example 40, hydrogen sulfate] , readout=MIC) returns < 8 µg/mL

get_value(item= CN/C(=N\OC(N)=O)[C@@H]1c2c(cnn2C)[C@@H]2CN1C(=O)N2OS(=O)(=O)O (racemic) , readout=MIC) returns < 8 µg/mL

get_value(item= CN/C(=N\OCC(N)=O)[C@@H]1c2c(cnn2C)[C@@H]2CN1C(=O)N2OS(=O)(=O)O , readout=MIC) returns < 8 µg/mL

get_value(item= CN/C(=N\OC(=O)NCC(=O)O)[C@@H]1c2c(cnn2C)[C@@H]2CN1C(=O)N2OS(=O)(=O)O (racemic) , readout=MIC) returns 8 to 16 µg/mL

get_value(item= CN/C(=N\O)[C@@H]1c2c(cnn2CC(N)=O)[C@@H]2CN1C(=O)N2OS(=O)(=O)O , readout=MIC) returns < 8 µg/mL

###

# System: P. aeruginosa WT (PAO1)
# assayExplanation: MIC, CLSI broth microdilution, P. aeruginosa
# Assay type: cell-based
# recordedConditions: Pseudomonas aeruginosa, PAO1; CLSI broth microdilution; read-out: P. aeruginosa WT (PAO1) MIC
Counter-ions that a name gives are not always drawn.
measurementName: MIC

get_value(item= CN/C(=N\O)[C@H]1c2c(cnn2C)[C@H]2CN1C(=O)N2OS(=O)(=O)O (stereo in doubt) [Example 41, hydrogen sulfate] , readout=MIC) returns > 16 µg/mL

get_value(item= CN/C(=N\OC(=O)NC1CNC1)[C@@H]1c2c(cnn2C)[C@@H]2CN1C(=O)N2OS(=O)(=O)O (racemic) , readout=MIC) returns < 8 µg/mL

get_value(item= Cn1ncc2c1[C@@H](/C(N)=N/O)N1C[C@@H]2N(OS(=O)(=O)[O-])C1=O.[Na+] , readout=MIC) returns > 16 µg/mL

get_value(item= Cn1ncc2c1[C@@H](/C(CNS(N)(=O)=O)=N/O)N1C[C@@H]2N(OS(=O)(=O)O)C1=O , readout=MIC) returns > 16 µg/mL

get_value(item= CN/C(=N\O)[C@@H]1c2c(cnn2C)[C@@H]2CN1C(=O)N2OS(=O)(=O)O (stereo in doubt) [Example 1, sulfate] , readout=MIC) returns < 8 µg/mL

get_value(item= Cn1ncc2c1[C@@H](/C(C#N)=N/O)N1C[C@@H]2N(OS(=O)(=O)O)C1=O (racemic) , readout=MIC) returns > 16 µg/mL

get_value(item= Cn1ncc2c1[C@@H](/C(=N/OC(=O)NC(C)(C)C(=O)O)NCc1nc(N)cs1)N1C[C@@H]2N(OS(=O)(=O)O)C1=O , readout=MIC) returns > 16 µg/mL

###

# Tested on: P. aeruginosa WT (PAO1)
# assayExplanation: MIC, CLSI broth microdilution, P. aeruginosa
# Type: cell-based
# recordedConditions: Pseudomonas aeruginosa, PAO1; CLSI broth microdilution; read-out: P. aeruginosa WT (PAO1) MIC
measurementName: MIC

get_value(item= CN/C(=N\OC(=O)NCCCC[C@H](N)C(=O)O)[C@@H]1c2c(cnn2C)[C@@H]2CN1C(=O)N2OS(=O)(=O)O (racemic) , readout=MIC) returns 8 to 16 µg/mL

get_value(item= CN/C(=N\OCC(=O)NC1CNC1)[C@@H]1c2c(cnn2C)[C@@H]2CN1C(=O)N2OS(=O)(=O)O (racemic) , readout=MIC) returns 8 to 16 µg/mL

get_value(item= CN(C)/C(=N\O)[C@@H]1c2c(cnn2C)[C@@H]2CN1C(=O)N2OS(=O)(=O)O , readout=MIC) returns > 16 µg/mL

get_value(item= CN/C(=N\OC(=O)NCCNC(N)=O)[C@@H]1c2c(cnn2C)[C@@H]2CN1C(=O)N2OS(=O)(=O)O , readout=MIC) returns 8 to 16 µg/mL

get_value(item= CN/C(=N\OCC(=O)O)[C@@H]1c2c(cnn2C)[C@@H]2CN1C(=O)N2OS(=O)(=O)O , readout=MIC) returns < 8 µg/mL

get_value(item= CN/C(=N\OC(=O)NCc1cn(C)[n+](C)c1)[C@@H]1c2c(cnn2C)[C@@H]2CN1C(=O)N2OS(=O)(=O)O , readout=MIC) returns 8 to 16 µg/mL

get_value(item= Cn1ncc2c1[C@@H](/C(=N/O)C(N)=O)N1C[C@@H]2N(OS(=O)(=O)O)C1=O , readout=MIC) returns > 16 µg/mL

Taken from patent US11046694B2.
